Molecular target: pooled human IgG
PROPERTY_MEASURED: Enzyme Activity Endpoint Assay (purified): IgG (ng/µL)
The reply should be a number in ng/µL, with the unit left off.

Look up Enzyme Activity Endpoint Assay (purified): IgG for this protein: PRT-572 (protein) MANQEIRYSEATPSHITSVWTKGVTPPTQFIQNEDVLHAPYIANQGWYDITKTFNGKDDLLCGAATAGNMLHWWFDQNKEQIENYLKKHPEKQKINFNGEQMFDVKEAIDTKDSQTDSALFSYFKDKAFPYLSTKHLGVFPDHVIDMFINGYRLSLTNHGPTPVKEQTKDPRGGIFDAVFTRGDQSKLLTSRHDFKEKTLNEISQLIKQELTEGKALGLSHTYANVRINHVINLWGADFNAEGNLEAIYVTDSDSNASIGMKKYYVGVNSAGKVAISAKEIEGDNIGAQVLGLFTLSTGQDIWQQTNLEHHHHHH
0

Recorded values, source patent US20250027068.
